target: Polyphenol oxidase 1 [61-568] (Agaricus bisporus); construct: 61-568; assay: Tyrosinase Activity Assay; settings: pH 6.8
Sequence (Q00024 61-568): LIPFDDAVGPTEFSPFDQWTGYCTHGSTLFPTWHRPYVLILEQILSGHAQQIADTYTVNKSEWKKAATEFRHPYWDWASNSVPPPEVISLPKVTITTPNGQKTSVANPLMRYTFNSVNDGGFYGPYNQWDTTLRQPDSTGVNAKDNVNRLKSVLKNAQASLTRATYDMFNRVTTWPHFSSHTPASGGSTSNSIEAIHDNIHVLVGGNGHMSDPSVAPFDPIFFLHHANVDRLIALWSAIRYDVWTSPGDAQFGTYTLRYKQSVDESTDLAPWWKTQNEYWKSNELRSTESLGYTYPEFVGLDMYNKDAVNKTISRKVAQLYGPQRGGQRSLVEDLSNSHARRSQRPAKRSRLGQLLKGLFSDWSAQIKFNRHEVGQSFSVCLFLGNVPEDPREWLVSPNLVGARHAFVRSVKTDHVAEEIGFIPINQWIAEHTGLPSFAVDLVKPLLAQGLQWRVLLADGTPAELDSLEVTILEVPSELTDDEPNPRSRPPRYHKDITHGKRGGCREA
observedProperty: IC50

# example entries with known answers
[[record]]
cpdsmiles = "Sc1nnc(N=Cc2ccc(Cl)c(Cl)c2)s1"
observed = "3.62 µM"

[[record]]
cpdsmiles = "Oc1ccc(Cl)cc1C=Nc1nnc(S)s1"
observed = "1.72 µM"

[[record]]
cpdsmiles = "Sc1nnc(N=Cc2cccc(Cl)c2)s1"
observed = "4.75 µM"

[[record]]
cpdsmiles = "COc1cc(C=Nc2nnc(S)s2)cc(OC)c1"
observed = "5.35 µM"

[[record]]
cpdsmiles = "COc1cc(C=Nc2nnc(S)s2)ccc1O"
observed = "0.036 µM"


Query: IC50; subject: Sc1nnc(N=Cc2ccccc2)s1 49.2 µM

Consider the compound shown here: Oc1ccc(C=Nc2nnc(S)s2)c(O)c1 What is its recorded IC50? 0.255 µM

Query: IC50; subject: COc1cc(C=Nc2nnc(S)s2)cc(OC)c1O 0.473 µM

Would you kindly share the measured IC50 for Oc1ccc(Br)cc1C=Nc1nnc(S)s1 ? 1.97 µM
